assay: antagonists of CRF-BP/CRF-R2 complex, primary screen, cell-based, HEK293, calcium dye fluorescence, uHTS (AID 588475); settings: CRF-induced calcium fluorescence, at 11.8 µM, hits give high values
Among all 350,000 compounds or so, about 2,100 (0.6%) were called active. The sample as a whole holds a higher share of actives than the screen did.
Could you please report measured inhibition for the items listed next?

[in] Fill blank: measured inhibition of the compound O=C(CSc1nc(-c2ccccc2)cs1)Nc1cccc([N+](=O)[O-])c1 is ____.
[out] 27.9% (inactive)

[in] Check COc1ccc(Cl)cc1NC(=O)CN(C)C(=O)c1cc2ccccc2cc1OC too.
[out] 9.16% (inactive)

[in] Try COc1ccc(NC(=O)CSc2nnnn2-c2cccc(OC)c2)cc1 next.
[out] 8.16% (inactive)

[in] Same read-out for COc1ccc(Cl)cc1NC(=O)CNc1ccccc1F ?
[out] 61.7% (active)

[in] Quick one: COc1cccc(NC(=S)NC(=O)c2c(Cl)c(C)nn2C)c1
[out] -4.16% (inactive)

[in] Another compound to check: O=S(=O)(Nc1ccccc1N1CCOCC1)c1ccc(Cl)s1
[out] -0.68% (inactive)

[in] Then COC(=O)c1ccc(NC(=O)c2ccccc2NS(=O)(=O)c2ccccc2)cc1 ?
[out] 61% (active)

[in] And then COC(=O)c1ccccc1NS(=O)(=O)c1ccc2[nH]c(=O)[nH]c2c1 , what is it?
[out] 17.7% (inactive)

[in] How about this compound: Cc1ccccc1N1CCN(Cc2nc(Cc3ccccc3F)no2)CC1
[out] 10.3% (inactive)

[in] Do the same for COc1cc(NC(=O)c2ccccc2NS(=O)(=O)c2ccc(Cl)s2)cc(OC)c1 please
[out] 90.5% (active)

[in] Same thing, different compound: COc1cccc(NC(=O)Nc2ccc(F)cc2)c1
[out] -2.92% (inactive)

[in] # iterate: O=C(CN(c1cccc(Cl)c1)S(=O)(=O)c1ccccc1)NN=C1CCCC1
[out] -7.21% (inactive)

[in] What would you report for Cc1nc2sc(C(c3ccco3)N3CCC4(CC3)OCCO4)c(O)n2n1 (configuration not stated) ?
[out] 11.4% (inactive)

[in] # iterate: COc1ccc(-n2nnnc2SCC(=O)c2ccc(OC)c(OC)c2)cc1
[out] 51.1% (active)

[in] Same question, CC(=O)Nc1ccc(NC(=O)[C@@H](NC(=O)c2cccc(C)c2)C(C)C)cc1 this time
[out] 4.4% (inactive)

[in] Now the same for O=C(CSc1nnnn1-c1ccc(O)cc1)c1ccc(F)cc1
[out] 4.96% (inactive)

[in] Lookup Cc1ccccc1C(CC(=O)c1cccs1)C(C#N)C#N (configuration not stated)
[out] -24.6% (inactive)
